- System: serine acetyltransferase
- Method description: Serine acetyltransferase enzyme activity test with and without L-cysteine (inhibitor constant Ki, specific activity)
- Format: biochemical, E. coli
- Measurement context: Table 1b; carboxyterminal deletions; inhibitor L-cysteine
- Experimental: Any method which enables the activity of the serine acetyltransferase to be determined in the presence of cysteine can be used for determining the cysteine sensitivity of this enzyme. For example, the serine acetyltransferase activity can be determined using the method described by Kredich and Tomkins, J. Biol. Chem. 241: 4955-4965 (1966). […] The biochemical parameters such as enzyme activity and inhibitor constant, Ki, were determined in an analogous manner to that described in Example 1. […]
Lab note: cut-off is 20 µM. Strictly less in Ki is TRUE. Exactly 20 µM or more is FALSE.

Sample answers from the record:
{"Molecule": "cysE-Del249: carboxyterminal deletion of 24 amino acids, terminal Ser249 (protein, UniProt P0A9D4 1-249, looked up, fragment) MSCEELEIVWNNIKAEARTLADCEPMLASFYHATLLKHENLGSALSYMLANKLSSPIMPAIAIREVVEEAYAADPEMIASAACDIQAVRTRDPAVDKYSTPLLYLKGFHALQAYRIGHWLWNQGRRALAIFLQNQVSVTFQVDIHPAAKIGRGIMLDHATGIVVGETAVIENDVSILQSVTLGGTGKSGGDRHPKIREGVMIGAGAKILGNIEVGRGAKIGAGSVVLQPVPPHTTAAGVPARIVGKPDS", "Assigned category": "TRUE"}
{"Molecule": "cysE-Del255: carboxyterminal deletion of 18 amino acids, terminal Asp255 (protein, UniProt P0A9D4 1-255, looked up, fragment) MSCEELEIVWNNIKAEARTLADCEPMLASFYHATLLKHENLGSALSYMLANKLSSPIMPAIAIREVVEEAYAADPEMIASAACDIQAVRTRDPAVDKYSTPLLYLKGFHALQAYRIGHWLWNQGRRALAIFLQNQVSVTFQVDIHPAAKIGRGIMLDHATGIVVGETAVIENDVSILQSVTLGGTGKSGGDRHPKIREGVMIGAGAKILGNIEVGRGAKIGAGSVVLQPVPPHTTAAGVPARIVGKPDSDKPSMD", "Assigned category": "FALSE"}
{"Molecule": "cysE-Del257: carboxyterminal deletion of 16 amino acids, terminal Asp257 (protein, UniProt P0A9D4 1-257, looked up, fragment) MSCEELEIVWNNIKAEARTLADCEPMLASFYHATLLKHENLGSALSYMLANKLSSPIMPAIAIREVVEEAYAADPEMIASAACDIQAVRTRDPAVDKYSTPLLYLKGFHALQAYRIGHWLWNQGRRALAIFLQNQVSVTFQVDIHPAAKIGRGIMLDHATGIVVGETAVIENDVSILQSVTLGGTGKSGGDRHPKIREGVMIGAGAKILGNIEVGRGAKIGAGSVVLQPVPPHTTAAGVPARIVGKPDSDKPSMDMD", "Assigned category": "TRUE"}

Would you kindly look at the next entry?
Query: A record lists cysE-Del248: carboxyterminal deletion of 25 amino acids, terminal Asp248 (protein, UniProt P0A9D4 1-248, looked up, fragment) MSCEELEIVWNNIKAEARTLADCEPMLASFYHATLLKHENLGSALSYMLANKLSSPIMPAIAIREVVEEAYAADPEMIASAACDIQAVRTRDPAVDKYSTPLLYLKGFHALQAYRIGHWLWNQGRRALAIFLQNQVSVTFQVDIHPAAKIGRGIMLDHATGIVVGETAVIENDVSILQSVTLGGTGKSGGDRHPKIREGVMIGAGAKILGNIEVGRGAKIGAGSVVLQPVPPHTTAAGVPARIVGKPD . Is its Ki below 20 µM?
Result: TRUE

All figures here come from patent US6218168A.
